src = patent US9416115B2

# Measured Target: hNav1.1 (SCN1A) (Homo sapiens, UniProt P35498)
# Assay Details: Use-dependent inhibition of the CNS Nav1.1 sodium channel
# Format: cell-based
# Test Settings: use-dependent block, 25 Hz, pulse 20, read-out: Nav1.1 UDB 25 Hz 10 uM
inhibition at 10 µM: recorded values

{"Compound": "Cc1cc(OC(F)(F)F)ccc1-c1ccc2onc(OCc3ncccn3)c2c1 [Example 3]", "inhibition at 10 µM": "< 5%"}
{"Compound": "Fc1cc(C(F)(F)F)ccc1-c1cc2c(OCc3ncccn3)noc2cc1F [Example 33]", "inhibition at 10 µM": "< 5%"}
{"Compound": "FC(F)(F)COc1ccc(-c2ccc3onc(OCc4ncccn4)c3c2)cn1 [Example 21]", "inhibition at 10 µM": "< 5%"}

###

# Measured Target: UniProtKB Q14524
# Assay Details: Late INa screening assay (QPatch whole cell patch clamp, Tefluthrin-induced late current)
# Type: cell-based
# Test Settings: 1 uM; HEK293 hNav1.5; percent block of late INa

{"Compound": "COc1ccnc(COc2noc3ccc(-c4ccc(OC(F)(F)F)cc4)cc23)n1 [Example 67]", "inhibition at 1 µM [%]": 77.4}
{"Compound": "CCN(CC)C(=O)COc1noc2ccc(-c3ccc(OC(F)(F)F)cc3)cc12 [Example 150]", "inhibition at 1 µM [%]": 68.2}
{"Compound": "FC(F)(F)Oc1ccc(-c2ccc3onc(OC[C@@H]4COCCN4)c3c2)cc1 [Example 113]", "inhibition at 1 µM [%]": 79.9}
{"Compound": "Cc1cc(OC(F)(F)F)ccc1-c1ccc2onc(OCc3ncccn3)c2c1 [Example 3]", "inhibition at 1 µM [%]": 52.6}
{"Compound": "CC(C)(C)OC(=O)N1CCOC[C@H]1COc1noc2ccc(-c3ccc(OC(F)(F)F)cc3)cc12 [Example 111]", "inhibition at 1 µM [%]": 35.1}
{"Compound": "CC(C)n1ccnc1COc1noc2ccc(-c3ccc(OC(F)(F)F)cc3)cc12 [Example 48]", "inhibition at 1 µM [%]": 51.2}
{"Compound": "CN1CCN(c2noc3ccc(-c4ccc(OC(F)(F)F)cc4)cc23)CC1 [Example 127]", "inhibition at 1 µM [%]": 37.4}
{"Compound": "FC(F)(F)Oc1ccc(-c2ccc3onc(OCc4c[nH]nn4)c3c2)cc1 [Example 83]", "inhibition at 1 µM [%]": 23.7}
{"Compound": "FC(F)(F)Oc1ccc(-c2ccc3onc(N4CCOCC4)c3c2)cc1 [Example 130]", "inhibition at 1 µM [%]": 38.3}
{"Compound": "Cc1cc(-c2cc3c(OCc4ncccn4)noc3cc2F)ccc1OC(F)(F)F [Example 32]", "inhibition at 1 µM [%]": 28.8}
{"Compound": "COc1cc(-c2ccc(C(F)(F)F)cc2F)cc2c(OCc3ncccn3)noc12 [Example 24]", "inhibition at 1 µM [%]": 36}
{"Compound": "c1cnc(COc2noc3ccc(-c4ccc(C5CC5)nc4)cc23)nc1 [Example 20]", "inhibition at 1 µM [%]": 28.8}
{"Compound": "FC(F)(F)Oc1ccc(-c2ccc3onc(-n4cncn4)c3c2)cc1 [Example 136]", "inhibition at 1 µM [%]": 44.8}
{"Compound": "CCn1cncc1COc1noc2ccc(-c3ccc(OC(F)(F)F)cc3)cc12 [Example 49]", "inhibition at 1 µM [%]": 39.6}
{"Compound": "O=C1NCC[C@H]1Oc1noc2ccc(-c3ccc(OC(F)(F)F)cc3)cc12 [Example 72]", "inhibition at 1 µM [%]": 57.4}
{"Compound": "CC(COc1noc2ccc(-c3ccc(OC(F)(F)F)cc3)cc12)n1cncn1 (centres unmarked) [Example 77]", "inhibition at 1 µM [%]": 49.2}
{"Compound": "O=C1CCCN1CCNc1noc2ccc(-c3ccc(OC(F)(F)F)cc3)cc12 [Example 135]", "inhibition at 1 µM [%]": 48.8}

###

# Measured Target: hNaV1.2 (SCN2A) (Homo sapiens, UniProt Q99250)
# Construct: expressed in transfected cells
# Sequence (Q99250 whole entry): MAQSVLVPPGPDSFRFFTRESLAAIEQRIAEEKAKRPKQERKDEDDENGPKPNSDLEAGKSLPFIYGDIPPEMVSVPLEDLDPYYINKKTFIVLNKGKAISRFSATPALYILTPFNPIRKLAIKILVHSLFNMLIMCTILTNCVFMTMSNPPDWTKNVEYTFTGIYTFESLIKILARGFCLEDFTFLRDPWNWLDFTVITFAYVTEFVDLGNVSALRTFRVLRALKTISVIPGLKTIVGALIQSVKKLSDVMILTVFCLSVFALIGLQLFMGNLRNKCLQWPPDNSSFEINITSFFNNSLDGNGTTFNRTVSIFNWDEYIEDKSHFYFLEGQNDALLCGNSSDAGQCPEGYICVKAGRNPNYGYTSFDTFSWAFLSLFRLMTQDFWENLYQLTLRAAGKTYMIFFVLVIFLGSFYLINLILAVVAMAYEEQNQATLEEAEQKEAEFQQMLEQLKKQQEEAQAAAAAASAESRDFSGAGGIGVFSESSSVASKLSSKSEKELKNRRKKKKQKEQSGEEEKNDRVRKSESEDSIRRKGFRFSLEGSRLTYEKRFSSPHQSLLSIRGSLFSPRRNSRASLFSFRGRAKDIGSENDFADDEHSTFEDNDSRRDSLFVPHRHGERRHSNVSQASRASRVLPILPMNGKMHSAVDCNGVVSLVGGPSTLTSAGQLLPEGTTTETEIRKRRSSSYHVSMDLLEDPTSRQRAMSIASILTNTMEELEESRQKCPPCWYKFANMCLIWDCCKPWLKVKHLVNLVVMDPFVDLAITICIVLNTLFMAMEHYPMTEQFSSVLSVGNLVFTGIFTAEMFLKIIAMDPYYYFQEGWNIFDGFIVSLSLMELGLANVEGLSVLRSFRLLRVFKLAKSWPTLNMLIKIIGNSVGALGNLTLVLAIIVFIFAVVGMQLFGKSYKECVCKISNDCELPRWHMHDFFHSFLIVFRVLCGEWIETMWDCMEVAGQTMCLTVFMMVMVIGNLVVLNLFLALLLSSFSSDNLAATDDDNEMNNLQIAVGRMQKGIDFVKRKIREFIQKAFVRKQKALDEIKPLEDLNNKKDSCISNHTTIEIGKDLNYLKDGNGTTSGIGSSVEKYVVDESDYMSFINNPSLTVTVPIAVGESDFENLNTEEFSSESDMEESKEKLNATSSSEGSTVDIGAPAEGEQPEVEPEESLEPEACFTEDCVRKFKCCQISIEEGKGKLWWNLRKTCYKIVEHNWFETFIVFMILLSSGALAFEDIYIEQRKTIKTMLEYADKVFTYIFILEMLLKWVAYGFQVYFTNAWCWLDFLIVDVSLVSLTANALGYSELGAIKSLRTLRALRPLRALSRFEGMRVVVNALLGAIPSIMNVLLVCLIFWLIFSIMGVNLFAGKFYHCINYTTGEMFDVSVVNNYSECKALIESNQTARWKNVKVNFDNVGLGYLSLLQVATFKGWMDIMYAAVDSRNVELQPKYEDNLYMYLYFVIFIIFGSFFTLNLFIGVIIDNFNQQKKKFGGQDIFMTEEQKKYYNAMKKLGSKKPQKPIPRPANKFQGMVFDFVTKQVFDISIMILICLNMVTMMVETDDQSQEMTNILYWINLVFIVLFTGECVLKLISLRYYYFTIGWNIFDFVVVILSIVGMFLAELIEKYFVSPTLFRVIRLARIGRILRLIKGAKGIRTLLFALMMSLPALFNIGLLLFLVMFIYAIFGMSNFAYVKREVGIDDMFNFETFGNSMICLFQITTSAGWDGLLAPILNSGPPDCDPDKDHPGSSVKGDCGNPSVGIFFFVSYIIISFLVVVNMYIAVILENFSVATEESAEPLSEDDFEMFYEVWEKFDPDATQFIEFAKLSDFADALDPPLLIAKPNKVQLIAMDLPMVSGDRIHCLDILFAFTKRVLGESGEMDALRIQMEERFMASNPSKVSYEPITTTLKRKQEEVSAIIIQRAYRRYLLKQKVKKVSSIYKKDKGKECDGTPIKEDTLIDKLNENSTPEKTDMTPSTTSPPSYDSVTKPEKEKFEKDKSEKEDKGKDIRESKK
# Sequence (Q07699 19-218 partner): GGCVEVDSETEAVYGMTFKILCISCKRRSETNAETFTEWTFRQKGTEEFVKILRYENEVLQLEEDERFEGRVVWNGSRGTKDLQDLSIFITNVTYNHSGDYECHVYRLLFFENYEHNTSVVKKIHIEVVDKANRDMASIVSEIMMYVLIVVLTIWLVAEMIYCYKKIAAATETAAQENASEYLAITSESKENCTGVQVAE
# Sequence (O60939 30-215 partner): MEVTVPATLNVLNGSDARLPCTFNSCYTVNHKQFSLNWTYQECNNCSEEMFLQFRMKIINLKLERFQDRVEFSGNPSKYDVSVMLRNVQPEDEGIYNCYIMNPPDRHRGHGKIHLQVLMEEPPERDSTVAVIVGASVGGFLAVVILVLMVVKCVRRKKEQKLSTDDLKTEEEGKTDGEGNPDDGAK
# Assay Details: Use-dependent inhibition of the CNS Nav1.2 sodium channel
# Format: cell-based
# Test Settings: use-dependent block, 25 Hz, pulse 20, read-out: Nav1.2 UDB 25 Hz 10 uM
# Method: HEK-293 cells stably expressing wild-type (WT) hNaV1.2 (SCN2A NCBI # NM_021007.2, SCN1B NCBI # NM_001037.4, SCN2B NCBI # NM_004588.2) were used to record INa. […] Cells are allowed to stabilize for 10 min after establishment of the whole-cell configuration before current is measured. […] Use-dependent block of Nav1.2 peak current is measured during pulse number 20 of a voltage pulse train (0 mV, 20 ms, 20 pulses, 25 Hz) from a holding potential of −120 mV. […]

{"Compound": "CC(COc1noc2ccc(-c3ccc(OC(F)(F)F)cc3)cc12)n1cccn1 (stereo not drawn) [Example 68]", "inhibition at 10 µM": "< 5%"}
{"Compound": "COc1cc(-c2ccc(C(F)(F)F)cc2F)cc2c(OCc3ncccn3)noc12 [Example 24]", "inhibition at 10 µM": "< 5%"}
{"Compound": "COc1cc2onc(OCc3ncccn3)c2cc1-c1ccc(F)c(Cl)c1 [Example 15]", "inhibition at 10 µM": "< 5%"}

###

inhibition at 3 µM: recorded values
# Measured Target: wild-type human cardiac sodium channel, hNav1.5 (Homo sapiens, UniProt Q14524)
# Sequence (Q14524 whole entry): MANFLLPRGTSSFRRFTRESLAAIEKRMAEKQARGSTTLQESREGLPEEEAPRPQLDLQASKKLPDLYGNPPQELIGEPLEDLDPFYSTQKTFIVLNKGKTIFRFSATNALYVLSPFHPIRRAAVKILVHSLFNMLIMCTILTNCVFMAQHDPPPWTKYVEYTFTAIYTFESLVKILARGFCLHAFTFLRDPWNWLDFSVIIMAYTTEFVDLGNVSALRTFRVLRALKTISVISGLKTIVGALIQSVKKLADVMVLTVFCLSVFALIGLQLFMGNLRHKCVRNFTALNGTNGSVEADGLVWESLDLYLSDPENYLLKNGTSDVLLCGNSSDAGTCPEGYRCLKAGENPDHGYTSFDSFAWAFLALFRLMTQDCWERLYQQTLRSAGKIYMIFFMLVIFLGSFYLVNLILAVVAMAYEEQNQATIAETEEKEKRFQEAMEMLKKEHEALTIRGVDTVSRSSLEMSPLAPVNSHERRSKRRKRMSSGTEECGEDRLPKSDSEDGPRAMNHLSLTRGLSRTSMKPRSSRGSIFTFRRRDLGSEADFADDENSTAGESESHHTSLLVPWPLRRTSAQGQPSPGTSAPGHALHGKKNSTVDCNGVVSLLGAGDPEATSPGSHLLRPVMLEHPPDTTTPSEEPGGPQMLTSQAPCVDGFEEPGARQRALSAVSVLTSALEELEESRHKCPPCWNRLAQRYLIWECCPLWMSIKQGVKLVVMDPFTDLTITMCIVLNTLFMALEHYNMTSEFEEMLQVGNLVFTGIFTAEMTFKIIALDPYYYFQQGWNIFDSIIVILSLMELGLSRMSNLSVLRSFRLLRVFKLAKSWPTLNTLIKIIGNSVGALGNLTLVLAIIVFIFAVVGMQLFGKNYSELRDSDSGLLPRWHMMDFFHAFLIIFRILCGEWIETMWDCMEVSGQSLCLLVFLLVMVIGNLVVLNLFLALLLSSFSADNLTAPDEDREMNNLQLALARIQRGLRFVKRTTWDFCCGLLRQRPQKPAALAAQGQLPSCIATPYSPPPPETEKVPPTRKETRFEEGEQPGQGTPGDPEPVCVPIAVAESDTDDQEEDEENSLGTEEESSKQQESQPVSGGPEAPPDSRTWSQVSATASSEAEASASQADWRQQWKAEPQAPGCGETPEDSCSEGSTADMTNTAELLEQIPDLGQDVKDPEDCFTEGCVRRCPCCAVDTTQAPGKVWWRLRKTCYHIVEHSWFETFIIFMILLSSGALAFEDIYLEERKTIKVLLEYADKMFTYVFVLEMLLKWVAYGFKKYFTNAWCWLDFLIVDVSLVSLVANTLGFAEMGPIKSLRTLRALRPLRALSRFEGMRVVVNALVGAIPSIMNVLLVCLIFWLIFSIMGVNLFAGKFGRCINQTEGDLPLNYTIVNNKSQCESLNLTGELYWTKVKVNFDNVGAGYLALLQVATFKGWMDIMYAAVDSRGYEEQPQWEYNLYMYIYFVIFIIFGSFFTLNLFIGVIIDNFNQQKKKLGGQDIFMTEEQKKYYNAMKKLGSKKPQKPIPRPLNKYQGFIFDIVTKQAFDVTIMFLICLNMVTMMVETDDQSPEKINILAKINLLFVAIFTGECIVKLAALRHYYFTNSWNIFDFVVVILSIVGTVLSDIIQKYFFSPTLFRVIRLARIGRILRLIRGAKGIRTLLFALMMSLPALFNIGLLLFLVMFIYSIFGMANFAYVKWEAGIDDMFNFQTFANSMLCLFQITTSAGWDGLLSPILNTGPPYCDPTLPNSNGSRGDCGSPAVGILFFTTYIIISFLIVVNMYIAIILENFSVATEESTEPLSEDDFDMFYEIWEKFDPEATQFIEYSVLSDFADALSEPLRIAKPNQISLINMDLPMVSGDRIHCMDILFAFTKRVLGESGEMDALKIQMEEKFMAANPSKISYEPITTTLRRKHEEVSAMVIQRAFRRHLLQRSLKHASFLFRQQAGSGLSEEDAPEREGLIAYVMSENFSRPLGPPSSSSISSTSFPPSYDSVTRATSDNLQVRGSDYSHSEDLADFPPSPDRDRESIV
# Assay Details: Peak INa screening assay (tonic block and use-dependent block)
# Assay type: cell-based
# Test Settings: use-dependent block of Peak INa, 3 Hz, pulse 50, read-out: Peak UDB 3 Hz 3 uM

{"Compound": "Cc1cc(OC(F)(F)F)ccc1-c1cc2c(OCc3ncccn3)noc2cc1C [Example 29]", "inhibition at 3 µM": "< 5%"}
{"Compound": "Cc1nc(C)n(CCOc2noc3ccc(-c4ccc(OC(F)(F)F)cc4)cc23)n1 [Example 76]", "inhibition at 3 µM": "< 5%"}
{"Compound": "CC(=O)N1CCOC[C@@H]1COc1noc2ccc(-c3ccc(OC(F)(F)F)cc3)cc12 [Example 116]", "inhibition at 3 µM": "15%"}
{"Compound": "FC(F)(F)COc1ccc(-c2ccc3onc(OCc4ncccn4)c3c2)cn1 [Example 21]", "inhibition at 3 µM": "< 5%"}

###

# Measured Target: UniProt:P35498
# Assay Details: Use-dependent inhibition of the CNS Nav1.1 sodium channel
# Type: cell-based
# Test Settings: use-dependent block, 25 Hz, pulse 20, read-out: Nav1.1 UDB 25 Hz 10 uM
Mark False for inhibition at 10 µM values under 30%, and True for everything at or above.

{"Molecule": "Cc1cc(COc2noc3ccc(-c4ccc(OC(F)(F)F)cc4)cc23)on1 [Example 102]", "Class Assignment": "False"}
{"Molecule": "FC(F)(F)Oc1ccc(-c2ccc3onc(NCC4CC4)c3c2)cc1 [Example 128]", "Class Assignment": "False"}
{"Molecule": "Cc1ccnc(COc2noc3ccc(-c4ccc(OC(F)(F)F)cc4)cc23)n1 [Example 5]", "Class Assignment": "False"}
{"Molecule": "COc1cc(-c2ccc(OC(F)(F)F)c(C)c2)cc2c(OCc3ncccn3)noc12 [Example 23]", "Class Assignment": "False"}
{"Molecule": "Cc1nnc(C(C)Oc2noc3ccc(-c4ccc(OC(F)(F)F)cc4)cc23)o1 (stereo not drawn) [Example 153]", "Class Assignment": "True"}
{"Molecule": "O=C1OCCN1CCOc1noc2ccc(-c3ccc(OC(F)(F)F)cc3)cc12 [Example 75]", "Class Assignment": "True"}
{"Molecule": "FC(F)(F)Oc1ccc(-c2ccc3onc(OC[C@H]4COCCN4)c3c2)cc1 [Example 114]", "Class Assignment": "True"}
{"Molecule": "FC(F)(F)Oc1ccc(-c2ccc3onc(OCc4cn[nH]c4)c3c2)cc1 [Example 45]", "Class Assignment": "True"}
{"Molecule": "Cc1cc(-c2cc3c(OCc4ncccn4)noc3cc2C)ccc1OC(F)(F)F [Example 27]", "Class Assignment": "False"}
{"Molecule": "OCc1cn(-c2noc3ccc(-c4ccc(OC(F)(F)F)cc4)cc23)cn1 [Example 146]", "Class Assignment": "True"}
{"Molecule": "COc1cc(-c2ccc(OC(F)(F)F)cc2C)cc2c(OCc3ncccn3)noc12 [Example 25]", "Class Assignment": "False"}
{"Molecule": "FC(F)(F)Oc1ccc(-c2ccc3onc(OCCNc4ncccn4)c3c2)cc1 [Example 123]", "Class Assignment": "False"}
{"Molecule": "CN1CCC[C@H]1COc1noc2ccc(-c3ccc(OC(F)(F)F)cc3)cc12 [Example 71]", "Class Assignment": "True"}
{"Molecule": "Cc1nccn1CCOc1noc2ccc(-c3ccc(OC(F)(F)F)cc3)cc12 [Example 57]", "Class Assignment": "True"}
{"Molecule": "CC(C)[C@@H](COc1noc2ccc(-c3ccc(OC(F)(F)F)cc3)cc12)N1CCCC1=O [Example 120]", "Class Assignment": "True"}
{"Molecule": "FC(F)(F)Oc1ccc(-c2ccc3onc(OCc4cccnn4)c3c2)cc1 [Example 74]", "Class Assignment": "False"}
{"Molecule": "FC(F)(F)Oc1ccc(-c2ccc3onc(OC[C@@H]4COCCN4)c3c2)cc1 [Example 113]", "Class Assignment": "True"}
{"Molecule": "Cc1cc(-c2ccc(OC(F)(F)F)cc2)cc2c(OCCn3cncn3)noc12 [Example 89]", "Class Assignment": "False"}
{"Molecule": "FC(F)(F)Oc1ccc(-c2ccc3onc(OCc4cnccn4)c3c2)cc1 [Example 151]", "Class Assignment": "False"}
{"Molecule": "Cc1cc(-c2ccc(OC(F)(F)F)cc2)cc2c(OCc3ncccn3)noc12 [Example 16]", "Class Assignment": "False"}
{"Molecule": "FC(F)(F)Oc1ccc(-c2ccc3onc(OCC4CCO4)c3c2)cc1 (stereo not drawn) [Example 42]", "Class Assignment": "False"}
{"Molecule": "O=C(COc1noc2ccc(-c3ccc(OC(F)(F)F)cc3)cc12)N1CCCC1 [Example 121]", "Class Assignment": "True"}
{"Molecule": "CC(=O)N1CC(COc2noc3ccc(-c4ccc(OC(F)(F)F)cc4)cc23)C1 [Example 110]", "Class Assignment": "True"}
{"Molecule": "FC(F)(F)Oc1ccc(-c2ccc3onc(NCc4ncccn4)c3c2)cc1 [Example 126]", "Class Assignment": "False"}
{"Molecule": "COc1cc(-c2ccc(C(F)(F)F)cc2F)cc2c(OCc3ncccn3)noc12 [Example 24]", "Class Assignment": "False"}
{"Molecule": "Cc1cn(-c2noc3ccc(-c4ccc(OC(F)(F)F)cc4)cc23)cn1 [Example 139]", "Class Assignment": "False"}
{"Molecule": "O=C1CC[C@H](COc2noc3ccc(-c4ccc(OC(F)(F)F)cc4)cc23)N1 [Example 61]", "Class Assignment": "False"}
{"Molecule": "CC(=O)N1CCC[C@H]1COc1noc2ccc(-c3ccc(OC(F)(F)F)cc3)cc12 [Example 109]", "Class Assignment": "True"}
{"Molecule": "Cc1nccnc1COc1noc2ccc(-c3ccc(OC(F)(F)F)cc3)cc12 [Example 152]", "Class Assignment": "False"}
{"Molecule": "CC(C)NC(=O)COc1noc2ccc(-c3ccc(OC(F)(F)F)cc3)cc12 [Example 122]", "Class Assignment": "False"}
